- tested.target: Tyrosine-protein kinase Mer (Homo sapiens) (UniProt Q12866)
- Sequence (Q12866 whole entry): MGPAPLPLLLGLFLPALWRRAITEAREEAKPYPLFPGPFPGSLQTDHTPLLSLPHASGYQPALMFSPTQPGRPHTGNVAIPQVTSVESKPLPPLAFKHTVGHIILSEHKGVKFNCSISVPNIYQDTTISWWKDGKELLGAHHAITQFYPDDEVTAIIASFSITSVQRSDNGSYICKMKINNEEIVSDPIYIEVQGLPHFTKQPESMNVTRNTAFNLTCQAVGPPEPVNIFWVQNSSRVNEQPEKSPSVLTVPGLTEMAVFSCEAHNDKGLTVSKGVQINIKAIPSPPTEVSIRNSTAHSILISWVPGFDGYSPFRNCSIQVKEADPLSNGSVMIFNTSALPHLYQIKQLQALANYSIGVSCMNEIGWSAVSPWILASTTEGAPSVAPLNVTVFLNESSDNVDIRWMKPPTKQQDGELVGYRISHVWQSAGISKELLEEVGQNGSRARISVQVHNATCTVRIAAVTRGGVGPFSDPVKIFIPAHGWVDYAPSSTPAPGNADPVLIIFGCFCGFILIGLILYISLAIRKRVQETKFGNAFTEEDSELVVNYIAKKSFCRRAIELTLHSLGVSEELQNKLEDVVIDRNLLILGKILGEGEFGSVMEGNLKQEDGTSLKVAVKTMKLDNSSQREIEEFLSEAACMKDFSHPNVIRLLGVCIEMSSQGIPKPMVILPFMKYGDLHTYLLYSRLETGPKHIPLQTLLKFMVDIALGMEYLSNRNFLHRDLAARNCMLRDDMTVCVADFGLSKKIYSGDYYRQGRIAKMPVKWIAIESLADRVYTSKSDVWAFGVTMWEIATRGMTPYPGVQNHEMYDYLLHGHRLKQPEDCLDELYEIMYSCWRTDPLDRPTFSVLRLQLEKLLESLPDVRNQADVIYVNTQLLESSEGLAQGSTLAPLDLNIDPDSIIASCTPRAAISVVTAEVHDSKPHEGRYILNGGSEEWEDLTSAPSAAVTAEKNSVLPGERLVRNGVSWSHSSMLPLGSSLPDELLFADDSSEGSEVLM
- details: at 1 µM
Listed next: entries and their corresponding residual activity.

# mol.smiles, display.unit, residual activity
data = [
    ("CO[C@H]1[C@@H](OC)C[C@H](C)[C@@H](OC)C2=CC(=O)C=C(NC(=O)/C(C)=C/C=C/[C@H](OC)[C@@H](OC(N)=O)/C(C)=C/[C@@H]1C)C2=O", "%", 105),
    ("COc1cc2ncnc(Nc3ccc(O)c(Br)c3)c2cc1OC", "%", 69),
    ("O=C1Nc2cc(Br)ccc2/C1=C1/Nc2ccccc2/C1=N\\O", "%", 26),
    ("Cc1cncc2cccc(S(=O)(=O)N3CCCN(C(=O)CN)C[C@H]3C)c12", "%", 79),
    ("Oc1c2ccccc2c2c3c(cccc13)N=N2", "%", 22),
    ("COc1cccc(-c2cc(=O)c3ccccc3o2)c1N", "%", 96),
    ("CO[C@@H]1[C@H](N(C)C(=O)c2ccccc2)C[C@H]2O[C@]1(C)n1c3ccccc3c3c4c(c5c6ccccc6n2c5c31)C(=O)NC4", "%", 8),
    ("CC[n+]1c(/C=C/N(C)c2ccccc2)n(-c2ccccc2)c2ccc(-c3nc4ccccc4s3)cc21", "%", 113),
    ("O=C1NC(=O)/C(=C/c2ccc3c(c2)OC(F)(F)O3)S1", "%", 110),
    ("Cn1nc2c3c(cccc31)C(=O)c1ccccc1-2", "%", 53),
    ("CC(C)n1cnc2c(NCc3ccccc3)nc(NCCCO)nc21", "%", 98),
]

====

- tested.target: Insulin-like growth factor 1 receptor (Homo sapiens) (UniProt P08069)
- Sequence (P08069 31-736 limits assumed): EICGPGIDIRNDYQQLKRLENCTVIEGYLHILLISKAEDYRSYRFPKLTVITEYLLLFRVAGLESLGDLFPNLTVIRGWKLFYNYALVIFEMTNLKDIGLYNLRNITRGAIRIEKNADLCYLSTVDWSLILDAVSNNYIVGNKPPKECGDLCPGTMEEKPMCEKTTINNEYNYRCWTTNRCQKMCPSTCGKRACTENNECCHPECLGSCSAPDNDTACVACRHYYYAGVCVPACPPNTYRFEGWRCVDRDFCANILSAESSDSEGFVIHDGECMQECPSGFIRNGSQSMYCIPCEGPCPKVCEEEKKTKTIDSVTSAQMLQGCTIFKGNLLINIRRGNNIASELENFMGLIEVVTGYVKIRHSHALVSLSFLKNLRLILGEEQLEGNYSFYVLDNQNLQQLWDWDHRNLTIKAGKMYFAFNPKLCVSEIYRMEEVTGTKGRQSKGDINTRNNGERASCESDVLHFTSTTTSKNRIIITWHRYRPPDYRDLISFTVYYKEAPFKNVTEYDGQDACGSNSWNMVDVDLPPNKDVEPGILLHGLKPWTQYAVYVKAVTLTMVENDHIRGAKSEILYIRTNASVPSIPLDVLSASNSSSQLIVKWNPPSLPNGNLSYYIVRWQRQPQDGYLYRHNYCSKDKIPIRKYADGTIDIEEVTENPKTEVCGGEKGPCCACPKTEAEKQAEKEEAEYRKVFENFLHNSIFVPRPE
- Sequence (P08069 741-1367 limits assumed): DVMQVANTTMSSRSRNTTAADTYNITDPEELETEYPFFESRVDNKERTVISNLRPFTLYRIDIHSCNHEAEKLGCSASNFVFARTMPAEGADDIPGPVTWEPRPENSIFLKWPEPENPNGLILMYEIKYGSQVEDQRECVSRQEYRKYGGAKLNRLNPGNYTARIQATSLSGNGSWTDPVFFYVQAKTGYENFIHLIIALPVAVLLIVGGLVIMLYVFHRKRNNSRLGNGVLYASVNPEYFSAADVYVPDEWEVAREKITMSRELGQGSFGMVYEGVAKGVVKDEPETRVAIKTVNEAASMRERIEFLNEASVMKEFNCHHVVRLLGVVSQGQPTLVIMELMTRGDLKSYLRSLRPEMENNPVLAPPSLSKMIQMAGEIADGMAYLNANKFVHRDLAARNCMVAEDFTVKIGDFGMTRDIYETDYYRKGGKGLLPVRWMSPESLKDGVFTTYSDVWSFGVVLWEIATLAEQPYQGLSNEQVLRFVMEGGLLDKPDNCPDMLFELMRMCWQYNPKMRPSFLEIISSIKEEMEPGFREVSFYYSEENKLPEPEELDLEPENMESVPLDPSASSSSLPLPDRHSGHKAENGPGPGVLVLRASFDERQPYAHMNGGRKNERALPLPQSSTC
- details: at 1 µM

# mol.smiles, residual activity [%]
measured = [
    ("Oc1n[nH]c2nnc(-c3c(-c4ccccc4)nn4ccccc34)cc12", 67),
    ("O=[N+]([O-])c1ccc(-c2nc(-c3ccc(F)cc3)c(-c3ccncc3)[nH]2)cc1", 114),
    ("CN(C)c1ccc(/C=C2\\C(=O)Nc3ccccc32)cc1", 146),
    ("Oc1ccc(Nc2nc(-c3ccc(Cl)cc3)cs2)cc1", 120),
    ("O=C1NC(=O)c2cc(Nc3ccc(F)cc3)c(Nc3ccc(F)cc3)cc21", 102),
    ("COc1ccc(S(=O)(=O)N(CCO)c2ccccc2CN(C)C/C=C/c2ccc(Cl)cc2)cc1", 121),
    ("COc1cc2ncnc(Nc3ccc(O)c(Br)c3)c2cc1OC", 71),
    ("Nc1nc(Nc2ccc(S(N)(=O)=O)cc2)nn1C(=S)Nc1c(F)cccc1F", 109),
    ("O=C1c2ccccc2-[n+]2ccc3c([nH]c4ccccc43)c21", 59),
    ("Cn1nc2c3c(cccc31)C(=O)c1ccccc1-2", 111),
    ("N#C/C(=C(\\N)Sc1ccc(N)cc1)c1ccccc1C(F)(F)F", 99),
    ("CNc1cc2c(Nc3cccc(Br)c3)ncnc2cn1", 118),
    ("O=C(Nc1cccc(Nc2cc(Nc3cccc(C(F)(F)F)c3)ncn2)c1)C1CC1", 141),
]

====

Listed next: entries and their corresponding residual activity.
- tested.target: Serine/threonine-protein kinase 33 (Homo sapiens) (UniProt Q9BYT3)
- Sequence (Q9BYT3 whole entry, looked up): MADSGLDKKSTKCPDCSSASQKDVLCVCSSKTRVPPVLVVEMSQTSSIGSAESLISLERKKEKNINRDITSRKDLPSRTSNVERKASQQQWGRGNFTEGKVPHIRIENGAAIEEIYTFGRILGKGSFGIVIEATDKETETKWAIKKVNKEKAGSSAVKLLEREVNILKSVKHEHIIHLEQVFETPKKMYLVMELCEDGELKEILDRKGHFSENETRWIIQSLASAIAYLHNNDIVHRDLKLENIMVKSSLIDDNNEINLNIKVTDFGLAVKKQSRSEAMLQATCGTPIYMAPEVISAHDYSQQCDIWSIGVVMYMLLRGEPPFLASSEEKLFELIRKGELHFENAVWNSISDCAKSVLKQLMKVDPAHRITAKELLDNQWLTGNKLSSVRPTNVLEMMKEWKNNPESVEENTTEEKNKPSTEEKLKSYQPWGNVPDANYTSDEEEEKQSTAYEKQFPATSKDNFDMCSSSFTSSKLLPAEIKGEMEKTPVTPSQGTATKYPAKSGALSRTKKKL
- details: at 1 µM

# compound, display.unit, residual activity
measured = [
    ("CN(C)CCCn1cc(C2=C(c3c[nH]c4ccccc34)C(=O)NC2=O)c2ccccc21", "%", 79),
    ("COc1ccc(S(=O)(=O)N(CCO)c2ccccc2CN(C)C/C=C/c2ccc(Cl)cc2)cc1", "%", 93),
    ("O=C1Nc2ccccc2/C1=C1/Nc2ccccc2/C1=N\\OCCC(O)CO (centres undefined)", "%", 37),
    ("Nc1nc(Nc2ccc(S(N)(=O)=O)cc2)nn1C(=S)Nc1c(F)cccc1F", "%", 77),
    ("CCC(=O)Nc1ccc2ncnc(Nc3cccc(Br)c3)c2c1", "%", 91),
    ("Cn1cnc2cc3c(Nc4cccc(Br)c4)ncnc3cc21", "%", 93),
    ("CC#CC(=O)Nc1cc2c(Nc3ccc(F)c(Cl)c3)ncnc2cn1", "%", 94),
    ("O=C1NC(=O)/C(=C\\c2ccc3nccnc3c2)S1", "%", 86),
    ("CC[n+]1c(/C=C/N(C)c2ccccc2)n(-c2ccccc2)c2ccc(-c3nc4ccccc4s3)cc21", "%", 89),
    ("O=C1Nc2cc(Br)ccc2/C1=C1/Nc2ccccc2/C1=N\\O", "%", 73),
    ("c1ccc(-c2n[nH]c3c2oc2ccccc23)cc1", "%", 94),
    ("N#CCCc1ccc2c(c1)-c1[nH]c3ccc([N+](=O)[O-])cc3c1CC(=O)N2", "%", 100),
    ("Nc1ccc2ncnc(NCCc3ccc(Oc4ccccc4)cc3)c2c1", "%", 104),
    ("Cc1nc2cc3nc(-c4cccs4)cnc3cc2n1C", "%", 106),
    ("CNc1cc2c(Nc3cccc(Br)c3)ncnc2cn1", "%", 96),
    ("O=[N+]([O-])c1ccc(-c2nc(-c3ccc(F)cc3)c(-c3ccncc3)[nH]2)cc1", "%", 104),
    ("O=C1NC(=O)/C(=C/c2ccc3c(c2)OC(F)(F)O3)S1", "%", 106),
    ("COc1ccc(OC)c2c(=S)c3ccccc3[nH]c12", "%", 94),
    ("COc1ccc(CNc2nc(N(CCO)CCO)nc3c2ncn3C(C)C)cc1", "%", 96),
    ("NC(=O)c1ccc2[nH]c(-c3ccc(Oc4ccc(Cl)cc4)cc3)nc2c1", "%", 96),
    ("Cn1nc2c3c(cccc31)C(=O)c1ccccc1-2", "%", 87),
    ("COc1cccc(-c2cc(=O)c3ccccc3o2)c1N", "%", 100),
    ("O=C(O)c1ccc2c3c1cccc3c(=O)n1c3ccccc3nc21", "%", 99),
    ("O=c1cc(-c2cccc3c2Sc2ccccc2S3)oc(N2CCOCC2)c1", "%", 97),
    ("C[C@@H](N)[C@H]1CC[C@H](C(=O)Nc2ccncc2)CC1", "%", 106),
    ("CO[C@H]1C[C@@H]2CC[C@@H](C)[C@@](O)(O2)C(=O)C(=O)N2CCCC[C@H]2C(=O)O[C@H]([C@H](C)C[C@@H]2CC[C@@H](O)[C@H](OC)C2)CC(=O)[C@H](C)/C=C(\\C)[C@@H](O)[C@@H](OC)C(=O)[C@H](C)C[C@H](C)/C=C/C=C/C=C/1C", "%", 92),
    ("COc1cc2ncnc(Nc3ccc(NC(=O)c4ccccc4)cc3)c2cc1OC", "%", 109),
    ("COc1ccc(C(=O)Nc2sc3c(c2C(N)=O)CCCC3)cc1OC", "%", 91),
    ("CC(C)n1cnc2/c(=N/c3cccc(Cl)c3)nc(NCCO)[nH]c21", "%", 78),
]

====

- tested.target: TGF-beta receptor type-1 (Homo sapiens)
- details: at 1 µM
- Description: Millipore: Percentage of residual kinase activity of TGFBR1 at 1uM relative to control. Control inhibitor: Phosphoric acid* at 0.3uM. Buffer: 8 mM MOPS pH 7.0, 0.2 mM EDTA, 1 mM MnCl2
metric.name: residual activity (%)

# mol.smiles, display.unit, reading
data = [
    ("CCOc1cc2ncnc(Nc3cccc(Br)c3)c2cc1OCC", "%", 89),
    ("COc1ccc(CNc2nc(N(CCO)CCO)nc3c2ncn3C(C)C)cc1", "%", 88),
    ("Nc1n[nH]c2nnc(-c3c(-c4ccccc4)nn4ccccc34)cc12", "%", 88),
]

====

- tested.target: Serine/threonine-protein kinase PAK 6 (Homo sapiens)
- details: at 10 µM
Mark y only for residual activity values smaller than 80%; exact matches and larger values are n.

# compound, group
rows = [
    ("CO[C@H]1C[C@@H]2CC[C@@H](C)[C@@](O)(O2)C(=O)C(=O)N2CCCC[C@H]2C(=O)O[C@H]([C@H](C)C[C@@H]2CC[C@@H](O)[C@H](OC)C2)CC(=O)[C@H](C)/C=C(\\C)[C@@H](O)[C@@H](OC)C(=O)[C@H](C)C[C@H](C)/C=C/C=C/C=C/1C", "n"),
    ("COc1cc2ncc(-c3ccccc3)nc2cc1OC", "y"),
    ("CN(C)c1ccc(/C=C2\\C(=O)Nc3ccccc32)cc1", "y"),
    ("Nc1ccc2ncnc(NCCc3ccc(Oc4ccccc4)cc3)c2c1", "n"),
    ("CC(C)n1cnc2/c(=N/c3cccc(Cl)c3)nc(NCCO)[nH]c21", "y"),
    ("CC[n+]1c(/C=C/N(C)c2ccccc2)n(-c2ccccc2)c2ccc(-c3nc4ccccc4s3)cc21", "n"),
    ("O=C1Nc2cc(Br)ccc2/C1=C1/Nc2ccccc2/C1=N\\O", "y"),
    ("O=C1Nc2ccccc2/C1=C1/Nc2ccccc2/C1=N\\OCCC(O)CO (stereo unspecified)", "y"),
    ("CCN(CC)C(=O)c1ccc(Nc2nc(OCC3CCCCC3)c3nc[nH]c3n2)cc1", "y"),
    ("CC(C)n1cnc2c(NCc3ccccc3)nc(NCCCO)nc21", "y"),
    ("O=C1c2ccccc2-[n+]2ccc3c([nH]c4ccccc43)c21", "n"),
    ("Cn1cnc2cc3c(Nc4cccc(Br)c4)ncnc3cc21", "n"),
    ("COc1cc2ncnc(Nc3ccc(NC(=O)c4ccccc4)cc3)c2cc1OC", "n"),
    ("C[C@@H](N)[C@H]1CC[C@H](C(=O)Nc2ccncc2)CC1", "n"),
]
